assay: A CellTox Green Cytotoxicity Assay to monitor cytotoxicity in HEK293 cells - 16 hour (AID 1224888); details: CellTox Green fluorescence; series mostly up to 76.8 µM; further: nearly all actives have a fitted effect of over 35% in size; further: potency means the concentration at half of the fitted maximal effect
Results filed as inconclusive are left out. Calls of active or inactive are those of the source. The call rests on the fitted dose curve; in most records, active means well fitted activation curve with a large enough effect in the repeat runs; inconclusive means weak or mixed curves; inactive means flat fitted curve, though single readings scatter.
value_kind: Potency

Example entries begin here.
molecule | result_value
CN1CCC(Nc2ncc3ncnc(Nc4ccc(F)c(Cl)c4)c3n2)CC1 | inactive
CN(C)[C@@H]1C(=O)C(C(N)=O)=C(O)[C@@]2(O)C(=O)C3=C(O)c4c(O)cccc4C[C@H]3C[C@@H]12 | inactive
Oc1cccc(-c2c3nc(c(-c4cccc(O)c4)c4ccc([nH]4)c(-c4cccc(O)c4)c4nc(c(-c5cccc(O)c5)c5ccc2[nH]5)CC4)C=C3)c1 | inactive
CCCCCCCC[N+](CCCCCCCC)(CCCCCCCC)CCCCCCCC | 21.8 µM (active)
CC(C)c1ccc2c(c1)CC[C@H]1[C@](C)(CN)CCC[C@]21C | 24.5 µM (active)

// query Recorded Potency for CCCCCCCCCCCC[N+](C)(C)CCCCCCCCCCCC , please?
// result 17.4 µM (active)

// query Given the entry CCCCC(CC)COP(=O)(O)OCC(CC)CCCC (configuration not stated) , report its measured Potency.
// result 38.9 µM (active)

// query Given the molecule O=C(N/N=C/c1ccccc1O)c1ccncc1 , what is its reported Potency?
// result inactive

// query Please look up its Potency: CCCCN1C(=O)[C@@H]([C@H](O)C2CCCCC2)NC(=O)C12CCN(Cc1ccc(Oc3ccc(C(=O)O)cc3)cc1)CC2
// result inactive

====

assay: qHTS assay to identify small molecule agonists of the farnesoid-X-receptor (FXR) signaling pathway - cell viability counter screen (AID 743218); settings: FXR-bla HEK293T viability, CellTiter-Glo luminescence, 16 h; series mostly up to 62.6 µM; further: nearly all actives have a fitted effect of over 45% in size
Inconclusive results are not listed. Active and inactive are the calls of the source. The call rests on the fitted dose curve; in most records, active means well fitted cell-killing curve with a large enough effect in the repeat runs; inconclusive means weak or mixed curves, or effect the other way; inactive means no such curve, though single readings can be large or run the other way.
Entry note: the call must match one of active, inactive

// query Status in this test for Cc1cc2c(cc1C(F)(F)F)N(C(=O)Nc1ccc(Oc3cccnc3C)nc1)CC2 ?
// result active

// query I'd appreciate the recorded outcome for OC1(c2ccc(Cl)c(C(F)(F)F)c2)CCN(CCCC(c2ccc(F)cc2)c2ccc(F)cc2)CC1 from this test.
// result active

// query # fetch the recorded call for O=C(Nc1cccc([N+](=O)[O-])c1)c1cc2ccccc2cc1O here
// result inactive

// query Short answer needed: outcome of this test for CSc1cnc(C)cn1 ?
// result inactive

====

assay: qHTS assay to identify small molecule antagonists of the estrogen related receptor (ERR) signaling pathway from Tox21 library (AID 1224848); conditions: ERR reporter cell line, luciferase antagonist mode, 18 h; series mostly up to 92.4 µM; further: nearly all actives have a fitted effect of over 50% in size; further: potency means the concentration at half of the fitted maximal effect
Inconclusive results are not listed. Activity calls are given as the source filed them. Calls follow the shape of the dose curve; as a rule, active = well fitted inhibition curve with a large enough effect in the repeat runs; inconclusive = weak or mixed curves; inactive = no such curve, though single readings can be large or run the other way.
value_kind: Potency

Sample records with Potency:
compound | result_value
C[C@H](CCC(=O)O)[C@H]1CC[C@H]2[C@@H]3CC[C@@H]4C[C@H](O)CC[C@]4(C)[C@H]3CC[C@]12C | inactive
Cc1cccc(CN2CCN(C(c3ccccc3)c3ccc(Cl)cc3)CC2)c1 (configuration not stated) | 26.6 µM (active)
Cc1cc(O)c(Cl)c(C)c1Cl | inactive
NC(=O)N1C(=O)C(C(=O)c2cc(Cl)cs2)c2cc(F)c(Cl)cc21 (configuration not stated) | inactive

Next:
// query Need Potency, item Cc1[nH]cnc1C[C@H]1CCc2c(C)c3ccccc3n2C1=O
// result 26.6 µM (active)

====

Assay: qHTS assay for identifying genotoxic compounds that show differential cytotoxicity against isogenic chicken DT40 cell lines with known DNA damage response pathways - Rad54/Ku70 mutant cell line (AID 743015); further: nearly all actives have a fitted effect of over 60% in size; further: potency means the concentration at half of the fitted maximal effect
Conditions: DT40 Rad54/Ku70 mutant viability, CellTiter-Glo, 40 h; series mostly up to 66.8 µM
Excerpt: National Center for Advancing Translational Sciences [NCATS] NIH Chemical Genomics Center [NCGC] U.S. Environmental Protection Agency [EPA] National Institutes of Environmental Health Sciences [NIEHS] National Toxicology Program [NTP] U.S. Food and Drug Administration [FDA] DNA repair pathways play a critical role in cellular homeostasis by repairing DNA damage induced by endogenous processes and xenobiotics. […]
Records with an inconclusive call do not appear. Activity calls are given as the source filed them. The call rests on the fitted dose curve; in most records, active means well fitted cell-killing curve with a large enough effect in the repeat runs; inconclusive means weak or mixed curves; inactive means no such curve, though single readings can be large or run the other way.
value_kind: Potency

compound | result_value
O=C(O)c1cc(O)c2c(c1)C(=O)c1cccc(O)c1C2=O | inactive
CSc1ccc(C(=O)c2[nH]c(=O)[nH]c2C)cc1 | inactive
CCC(N)(CO)CO | inactive
CC1=C(C(=O)OC(C)C)C(c2cccc([N+](=O)[O-])c2)C(C(=O)OC2CN(C(c3ccccc3)c3ccccc3)C2)=C(N)N1 (stereo not given) | 13.3 µM (active)

Consider the additional compound presented here.
// query Given the compound O=C1CCCc2c1cc1ccc3cccc4ccc2c1c34 , what is its reported Potency?
// result inactive

====

assay: qHTS assay for small molecules that induce genotoxicity in human embryonic kidney cells expressing luciferase-tagged ATAD5 - cell viability (AID 651634); conditions: HEK293T ATAD5-luc cells viability, CellTiter-Fluor, 15.5 h; series mostly up to 83.3 µM; further: nearly all actives have a fitted effect of over 25% in size
Results filed as inconclusive are left out. Active and inactive are the calls of the source. Calls come from the whole dose curve.
Outcomes you can answer with include only these: active, inactive

// query // return assay outcome for CSc1ccc(C(=O)c2[nH]c(=O)[nH]c2C)cc1
// result inactive

// query Please state the recorded outcome for this molecule: NNC(=O)c1cccc(C(=O)NN)c1
// result inactive

// query What did the test return for O=C(Nc1cccc(Cl)c1)OCC#CCCl ?
// result active

// query What did this assay record as the result for O=C(O)c1ccc(Cl)c(Cl)c1 ?
// result inactive

// query Given Clc1ccc2nsnc2c1NC1=NCCN1 , state the outcome it received in this test.
// result inactive

// query What outcome does the record of this test show for CCCCCCCCOc1ccccc1C(=O)Nc1ccc(C(=O)OCC[N+](C)(CC)CC)cc1 ?
// result inactive

// query Write down the call the test reported for this molecule. Item: Cc1cc(O)c(C(C)(C)C)cc1C(C)(C)C
// result active

====

experiment: qHTS RealTime-Glo MT Cell Viability Assay in HepG2 cells - 8 hour (AID 1224873); details: RealTime-Glo luminescence; series mostly up to 76.8 µM; further: nearly all actives have a fitted effect of over 55% in size
Records with an inconclusive call do not appear. Activity calls are given as the source filed them. The call rests on the fitted dose curve; in most records, active means well fitted cell-killing curve with a large enough effect in the repeat runs; inconclusive means weak or mixed curves; inactive means flat fitted curve, though single readings scatter.
Choose one outcome from this list and give only that: active, inactive

// query Hello, I am checking results. What call was entered for N#CC1(c2ccc(F)cc2)CCC(=O)CC1 ?
// result inactive

// query For this molecule, state the assay outcome: CC(=O)N1CCN(c2ccc(OC[C@H]3CO[C@](Cn4ccnc4)(c4ccc(Cl)cc4Cl)O3)cc2)CC1
// result active

// query Which outcome was assigned to CC1=NC(C)OC1C (centres undefined) in this test?
// result inactive

// query Recorded call for CN1CCC(Nc2ncc3ncnc(Nc4ccc(F)c(Cl)c4)c3n2)CC1 ?
// result inactive

// query Hey, what did the test say about CN(C/C=C/C#CC(C)(C)C)Cc1cccc2ccccc12 ?
// result inactive

// query For this molecule, state the assay outcome: CCCCN1CCCC[C@H]1C(=O)Nc1c(C)cccc1C
// result inactive

// query Recorded test call requested for COC(=O)C1=C(C)NC(C)=C(C(=O)OCC(C)C)C1c1ccccc1[N+](=O)[O-] (centres undefined)
// result active

// query What outcome does the record of this test show for CCCCN1C(=O)[C@@H]([C@H](O)C2CCCCC2)NC(=O)C12CCN(Cc1ccc(Oc3ccc(C(=O)O)cc3)cc1)CC2 ?
// result inactive

// query Would you mind telling me which call this test gave CCCCCCCCCCCCCCCC[N+](C)(C)CCN(Cc1ccc(OC)cc1)c1ncccn1 ?
// result active

// query Field: outcome | Entry: CC(C)(C)C1CCC(CC2=C(O)c3ccccc3C(=O)C2=O)CC1 (centres undefined)
// result inactive

// query Returns: the outcome recorded for CC(C)n1nc(-c2cc3cc(O)ccc3[nH]2)c2c(N)ncnc21 in this assay.
// result inactive

// query Name the outcome recorded for Cc1cc(O)c2ccccc2c1O in the assay.
// result active

// query Status in this test for CC(=O)OCC(C)OC(C)=O (centres undefined) ?
// result inactive

// query Name the outcome recorded for O=C(O)c1c(Cl)cccc1Cl in the assay.
// result inactive

// query Lab log entry: CCN(Cc1cccnc1)C(=O)c1cccc(Cl)c1[C@]1(C)C(=O)N(Cc2ccc(OC)cc2OC)c2ccc(Cl)cc21 — outcome as called in the assay?
// result active

// query Which result was noted for this molecule in the test: CCCCCCC[N+](CC)(CC)CCCCc1ccc(Cl)cc1
// result inactive

// query In this assay, the call recorded for CC(C)CCCCCCCCCCCCCCC(=O)O was what?
// result inactive

// query What did this assay record as the result for Cc1cc(C2CCCCC2)n(O)c(=O)c1 ?
// result inactive

// query // outcome(item) with item = Oc1ccc2cc(SSc3ccc4cc(O)ccc4c3)ccc2c1
// result inactive

// query State the result this test recorded for CC[C@H](c1ccc(O)cc1)[C@@H](CC)c1ccc(O)cc1 .
// result inactive

// query Please share the test call associated with COc1c(C)c2c(c(O)c1C/C=C(\C)CCC(=O)O)C(=O)OC2 .
// result inactive

// query # fetch the recorded call for CC1(C)CCC(C)(C)c2cc(C(=O)Nc3ccc(C(=O)O)cc3)ccc21 here
// result inactive

// query Tell me the recorded outcome of this test for CCN(C(=O)c1cc(C)cc(OC[C@H](C)Nc2ccncc2)c1)C(C)C .
// result inactive

// query Answer briefly: the call reported for COc1cccc(N)c1 in this assay.
// result inactive
